Measured TGI accompanies every entry in the list below.
Tested on: SN12C renal
Test: NCI tumour cell line growth inhibition, 48 h
OBSERVED_PROPERTY: TGI (µM)

>>> assay_value("CC(C)(C)c1ccc(S(=O)(=O)N[C@H]2CC[C@H]3[C@@H]4CCc5cc(O)ccc5[C@H]4CC[C@]23C)cc1")
3.55
>>> assay_value("C=CC[PH+](c1ccccc1)c1ccccc1.C=CC[PH+](c1ccccc1)c1ccccc1.[Cl][Pt][Cl]")
13.9
>>> assay_value("COc1cc(C2c3cc4c(cc3[C@@H](Nc3cccc(O)c3)C3COC(=O)[C@H]23)OCO4)cc(OC)c1O (some centres undefined)")
6.82
>>> assay_value("BrCC[P+](c1ccccc1)(c1ccccc1)c1ccccc1")
8.39
>>> assay_value("CN(C)c1ccc(Sc2ccc3nc(N)nc(N)c3c2)cc1")
14.2
>>> assay_value("C/C(=N/Nc1ccc([N+](=O)[O-])cc1[N+](=O)[O-])C(CC(C(=O)Nc1ccccc1C)/C(C)=N\\Nc1ccc([N+](=O)[O-])cc1[N+](=O)[O-])C(=O)Nc1ccccc1C (centres undefined)")
12.7
>>> assay_value("Clc1ncc(C(Cl)(Cl)Cl)nc1-c1ccccc1")
8.57
>>> assay_value("O=C(CN=Cc1cccs1)CSC(c1ccccc1)c1ccccc1")
36.1
>>> assay_value("COC1C(CO)OC(n2c3ccccc3c3c4c(c5c6ccccc6[nH]c5c32)C(=O)NC4=O)C(O)C1OC(=O)C(N)CCCCN (centres undefined)")
2.36
>>> assay_value("C=C1C(=O)C[C@@]23CCC[C@@]12CC(O)C3 (some centres undefined)")
38.1
>>> assay_value("CCCCCCCCCCCCCCCCCC1=NC(C)(C)CN1CCO")
3.61
>>> assay_value("CC(=O)Nc1ccc(-n2cnc3cc(-c4ccc(OCCN5CCCCC5)cc4)ccc32)cc1")
9.72
